- measuredTarget: PKC alpha (Homo sapiens, UniProt P17252)
- methodSummary: PKC Enzyme Assay, alpha
- Assay type: biochemical
- measurementConditions: Table 1; read-out: IC50 α
pIC50: −log10 of the molar value.
readoutLabel: pIC50

> print(dat)
                                   molecule                            measuredtarget  assayvalue
1  CC(C)(C)OC(=O)N[C@@H](Cc1ccccc1)C(=O)n1cc(C2=C(c3cn(C(=O)[C@H](Cc4ccccc4)NC(=O)OC(C)(C)C)c4ccccc34)C(=O)NC2=O)c2ccccc21  PKC alpha (Homo sapiens, UniProt P17252)        4.08

Each recorded value in this set is attributed to patent US5491242A.
